Molecular target: Kir1.1 (ROMK1) (Homo sapiens (Human), UniProt P48048)
Sequence (P48048 whole entry): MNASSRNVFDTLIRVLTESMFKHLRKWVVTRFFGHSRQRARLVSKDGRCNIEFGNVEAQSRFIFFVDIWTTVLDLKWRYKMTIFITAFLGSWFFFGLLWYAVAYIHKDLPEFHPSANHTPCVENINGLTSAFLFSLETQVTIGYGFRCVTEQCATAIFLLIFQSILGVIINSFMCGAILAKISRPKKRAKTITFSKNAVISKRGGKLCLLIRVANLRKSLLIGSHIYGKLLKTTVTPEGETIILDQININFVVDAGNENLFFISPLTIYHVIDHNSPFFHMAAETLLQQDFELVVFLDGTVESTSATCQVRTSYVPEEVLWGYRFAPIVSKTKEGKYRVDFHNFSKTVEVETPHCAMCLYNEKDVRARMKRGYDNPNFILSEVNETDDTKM
Assay: Electrophysiology Assay (whole cell voltage clamp, IonWorks Quattro)
Conditions: Chinese hamster ovary cells stably expressing Kir1.1; block during voltage step to 0 mV
Method: Block of Kir1.1 (ROMK1) currents was examined by whole cell voltage clamp (Hamill et. al. […] Prior to an experiment, Kir1.1 expression was induced by overnight incubation with 1 mM sodium butyrate. […] Current amplitudes were measured using the IonWorks software. To assess compound potency, the fractional block during the voltage step to 0 mV was calculated in Microsoft Excel (Microsoft, Redmond, Calif.), and dose-response curves were fitted with Igor Pro 4.0 (WaveMetrics, Lake Oswego, Oreg.).

Compound: COc1c([C@@H]2CN3CCN(C(=O)C4CCc5cc(-n6cnnn6)ncc54)C[C@H]3CO2)ccc(F)c1C#N (some centres unmarked)
Subject Of Test: Kir1.1 (ROMK1) (Homo sapiens (Human), UniProt P48048)
IC50: 220 nM
//
Compound: N#Cc1c(F)ccc([C@H]2CN3CCN(C(=O)C4CCc5nc(-n6cnnn6)ccc54)C[C@@H]3CO2)c1Cl (some centres unmarked)
Subject Of Test: Kir1.1 (ROMK1) (Homo sapiens (Human), UniProt P48048)
IC50: 190 nM
//
Compound: Cc1c([C@@H]2CN3CCN(C(=O)C4CCc5nc(-n6cnnn6)ccc54)C[C@H]3CO2)csc1C#N (some centres unmarked)
Subject Of Test: Kir1.1 (ROMK1) (Homo sapiens (Human), UniProt P48048)
IC50: 60 nM
//
Compound: N#Cc1c(F)ccc([C@H]2CN3CCN(C(=O)C4CCc5nc(-n6cnnn6)ccc54)C[C@H]3CO2)c1F (some centres unmarked)
Subject Of Test: Kir1.1 (ROMK1) (Homo sapiens (Human), UniProt P48048)
IC50: 90 nM
//
Compound: Cc1c([C@H]2CN3CCN(C(=O)C4CCc5nc(-n6cnnn6)ccc54)C[C@H]3CO2)ccc(F)c1C#N (some centres unmarked) [Example 5]
Subject Of Test: Kir1.1 (ROMK1) (Homo sapiens (Human), UniProt P48048)
IC50: 100 nM
//
Compound: N#Cc1c(F)ccc([C@H]2CN3CCN(C(=O)C4CCc5nc(-n6cnnn6)ccc54)C[C@H]3CO2)c1Cl (some centres unmarked) [Example 29]
Subject Of Test: Kir1.1 (ROMK1) (Homo sapiens (Human), UniProt P48048)
IC50: 140 nM
//
Compound: Cc1c([C@H]2CN3CCN(C(=O)C4CCc5nc(-n6cnnn6)ncc54)C[C@H]3CN2)ccc(F)c1C#N (some centres unmarked)
Subject Of Test: Kir1.1 (ROMK1) (Homo sapiens (Human), UniProt P48048)
IC50: 100 nM
//
Compound: Cc1c([C@@H]2CN3CCN(C(=O)C4CCCc5nc(-n6cnnn6)ccc54)C[C@H]3CO2)ccc(F)c1C#N (some centres unmarked) [Example 10]
Subject Of Test: Kir1.1 (ROMK1) (Homo sapiens (Human), UniProt P48048)
IC50: 180 nM
//
Compound: Cc1c([C@H]2CN3CCN(C(=O)C4CCc5cc(-n6cnnn6)ncc54)C[C@@H]3CO2)ccc(F)c1C#N (some centres unmarked) [Example 41]
Subject Of Test: Kir1.1 (ROMK1) (Homo sapiens (Human), UniProt P48048)
IC50: 110 nM
//
Compound: N#Cc1c(F)ccc([C@@H]2CN3CCN(C(=O)C4CCc5nc(-n6cnnn6)ccc54)C[C@H]3CO2)c1F (some centres unmarked)
Subject Of Test: Kir1.1 (ROMK1) (Homo sapiens (Human), UniProt P48048)
IC50: 110 nM
//
Compound: Cc1c([C@@H]2CN3CCN(C(=O)C4CCc5nc(-n6cnnn6)ccc54)C[C@H]3CN2)ccc(F)c1C#N (some centres unmarked)
Subject Of Test: Kir1.1 (ROMK1) (Homo sapiens (Human), UniProt P48048)
IC50: 170 nM
//
Compound: Cc1c([C@@H]2CN3CCN(C(=O)C4CCCc5nc(-n6cnnn6)ccc54)C[C@H]3CO2)ccc(F)c1C#N (some centres unmarked) [Example 11]
Subject Of Test: Kir1.1 (ROMK1) (Homo sapiens (Human), UniProt P48048)
IC50: 240 nM
//
Compound: Cc1c([C@@H]2CN3CCN(C(=O)C4CCc5nc(-n6cnnn6)ccc54)C[C@H]3CO2)ccc(F)c1C#N (some centres unmarked) [Example 7]
Subject Of Test: Kir1.1 (ROMK1) (Homo sapiens (Human), UniProt P48048)
IC50: 80 nM
//
Compound: Cc1c([C@H]2CN3CCN(C(=O)C4CCCc5nc(-n6cnnn6)ccc54)C[C@H]3CO2)ccc(F)c1C#N (some centres unmarked) [Example 8]
Subject Of Test: Kir1.1 (ROMK1) (Homo sapiens (Human), UniProt P48048)
IC50: 240 nM
//
Compound: Cc1c(C#N)cccc1[C@@H]1CN2CCN(C(=O)C3CCc4nc(-n5cnnn5)ccc43)C[C@H]2CO1 (some centres unmarked)
Subject Of Test: Kir1.1 (ROMK1) (Homo sapiens (Human), UniProt P48048)
IC50: 120 nM
//
Compound: Cc1c([C@H]2CN3CCN(C(=O)C4CCc5nc(-n6cnnn6)ncc54)C[C@H]3CO2)ccc(F)c1C#N (single isomer, unassigned) [Example 2H]
Subject Of Test: Kir1.1 (ROMK1) (Homo sapiens (Human), UniProt P48048)
IC50: 100 nM
//
Compound: O=C1OCCc2cc([C@@H]3CN4CCN(C(=O)C5CCCc6nc(-n7cnnn7)ccc65)C[C@H]4CO3)ccc21 (some centres unmarked)
Subject Of Test: Kir1.1 (ROMK1) (Homo sapiens (Human), UniProt P48048)
IC50: 210 nM
//
Compound: Cc1c([C@@H]2CN3CCN(C(=O)C4CCc5cc(-n6cnnn6)cnc54)C[C@H]3CO2)ccc(F)c1C#N (some centres unmarked) [Example 38]
Subject Of Test: Kir1.1 (ROMK1) (Homo sapiens (Human), UniProt P48048)
IC50: 280 nM
//
Compound: N#Cc1cc([C@@H]2CN3CCN(C(=O)C4CCc5nc(-n6cnnn6)ncc54)C[C@@H]3CO2)ccc1F (some centres unmarked)
Subject Of Test: Kir1.1 (ROMK1) (Homo sapiens (Human), UniProt P48048)
IC50: 120 nM
//
Compound: Cc1c([C@@H]2CN3CCN(C(=O)C4CCc5nc(-n6cnnn6)ncc54)C[C@@H]3CO2)ccc(F)c1C#N (single isomer, unassigned) [Example 2C]
Subject Of Test: Kir1.1 (ROMK1) (Homo sapiens (Human), UniProt P48048)
IC50: 150 nM
//
Compound: Cc1c([C@H]2CN3CCN(C(=O)C4CCc5cc(-n6cnnn6)cnc54)C[C@@H]3CO2)ccc(F)c1C#N (some centres unmarked)
Subject Of Test: Kir1.1 (ROMK1) (Homo sapiens (Human), UniProt P48048)
IC50: 390 nM
//
Compound: Cc1c([C@@H]2CN3CCN(C(=O)C4CCCc5nc(-n6cnnn6)ccc54)C[C@@H]3CO2)ccc(F)c1C#N (some centres unmarked)
Subject Of Test: Kir1.1 (ROMK1) (Homo sapiens (Human), UniProt P48048)
IC50: 160 nM
//
Compound: N#Cc1c(F)ccc([C@@H]2CN3CCN(C(=O)C4CCc5cc(-n6cnnn6)ncc54)C[C@H]3CO2)c1Cl (some centres unmarked)
Subject Of Test: Kir1.1 (ROMK1) (Homo sapiens (Human), UniProt P48048)
IC50: 80 nM
//
Compound: Cc1c([C@@H]2CN3CCN(C(=O)C4CCc5cc(-n6cnnn6)ncc54)C[C@H]3CN2)ccc(F)c1C#N (single isomer, unassigned) [Example 96B]
Subject Of Test: Kir1.1 (ROMK1) (Homo sapiens (Human), UniProt P48048)
IC50: > 1000 nM
//
Compound: N#Cc1c(F)ccc([C@@H]2CN3CCN(C(=O)C4CCc5cc(-n6cnnn6)ncc54)C[C@@H]3CO2)c1F (some centres unmarked)
Subject Of Test: Kir1.1 (ROMK1) (Homo sapiens (Human), UniProt P48048)
IC50: 200 nM
//
Compound: Cc1c([C@@H]2CN3CCN(C(=O)C4CCc5cc(-n6cnnn6)ncc54)C[C@@H]3CO2)ccc(F)c1C#N (some centres unmarked) [Example 42]
Subject Of Test: Kir1.1 (ROMK1) (Homo sapiens (Human), UniProt P48048)
IC50: 130 nM

---

target: Kir1.1 (ROMK1) (Homo sapiens (Human)); assay: Electrophysiology Assay (whole cell voltage clamp, IonWorks Quattro); conditions: Chinese hamster ovary cells stably expressing Kir1.1; block during voltage step to 0 mV
Exam item: assign Y to entries whose IC50 is below 200 nM and N to entries at or above 200 nM. Note that a value of exactly 200 nM receives N.

Compound: O=C1OCCc2cc([C@@H]3CN4CCN(C(=O)C5CCc6cc(-n7cnnn7)ncc65)C[C@H]4CO3)ccc21 (stereo partly drawn)
Cat: N

Compound: N#Cc1c(F)ccc([C@H]2CN3CCN(C(=O)C4CCc5cc(-n6cnnn6)ncc54)C[C@@H]3CO2)c1F (stereo partly drawn)
Cat: Y

Compound: COc1c([C@@H]2CN3CCN(C(=O)C4CCc5cc(-n6cnnn6)ncc54)C[C@H]3CO2)ccc(C#N)c1F (stereo partly drawn)
Cat: Y

Compound: Cc1c([C@@H]2CN3CCN(C(=O)C4CCc5cc(-n6cnnn6)cnc54)C[C@H]3CN2)ccc(F)c1C#N (stereo partly drawn) [Example 100]
Cat: N

Compound: Cc1c([C@H]2CN3CCN(C(=O)C4CCc5nc(-n6cnnn6)ncc54)C[C@H]3CO2)ccc(F)c1C#N (single isomer, unassigned) [Example 2G]
Cat: Y

Compound: COc1cc(F)c([C@H]2CN3CCN(C(=O)C4CCc5nc(-n6cnnn6)ccc54)C[C@@H]3CO2)cc1C#N (stereo partly drawn)
Cat: N
